// provenance: ChEMBL document CHEMBL1914449

Below: a set of entries, each annotated with reported selectivity ratio.
assay: Selectivity index, ratio of CC50 for human TZM-bl cells to EC50 for X4 tropic Human immunodeficiency virus 1 subtype B-3B
Assay type: cell-based
condition: read-out: Ratio CC50/EC50

- compound: "Cc1cc(N2C(=O)CSC2c2c(F)cccc2Cl)no1 (stereo not given)"
  selectivity ratio: 57.4
- compound: "CC(C)(C)c1cc(N2C(=O)CSC2c2c(F)cccc2F)no1 (stereo not given)"
  selectivity ratio: 15.5
- compound: "Cc1cc(N2C(=O)CSC2c2c(Cl)cncc2Cl)nc(C)c1Br (stereo not given)"
  selectivity ratio: 10.4
- compound: "Cc1ccnc2c1NC(=O)c1cccnc1N2C1CC1"
  selectivity ratio: 1520
- compound: "Cc1cc(C)nc(N2C(=O)CSC2c2c(Cl)cncc2Cl)c1 (stereo not given)"
  selectivity ratio: 46.6

###

assay: Selectivity index, ratio of CC50 for human TZM-bl cells to EC50 for R5 tropic Human immunodeficiency virus 1 subtype B-ADA5
Type: toxicity, cell-based
condition: read-out: Ratio CC50/EC50
// selectivity ratio lookup, one value per entry
experimental.readout: selectivity ratio

- compound: "CC(C)(C)c1cc(N2C(=O)CSC2c2c(F)cccc2F)no1 (stereo unspecified)"
  obs.value: 18
- compound: "Cc1cc(N2C(=O)CSC2c2c(F)cccc2Cl)nc(C)c1Br (stereo unspecified)"
  obs.value: 335
- compound: "Cc1ccnc2c1NC(=O)c1cccnc1N2C1CC1"
  obs.value: 1520
- compound: "CC(C)(C)c1cc(N2C(=O)CSC2c2c(Cl)cccc2Cl)no1 (stereo unspecified)"
  obs.value: 20
- compound: "CSc1nc(Cl)cc(N2C(=O)CSC2c2c(F)cccc2Cl)n1 (stereo unspecified)"
  obs.value: 21.4
- compound: "Cc1cccc(N2C(=O)CSC2c2c(Br)cncc2Br)n1 (stereo unspecified)"
  obs.value: 6.5

###

system.tested: Human immunodeficiency virus type 1 reverse transcriptase (Human immunodeficiency virus 1) (UniProt Q72547)
assay: Inhibition of biotin-dNTP labeled HIV-1 reverse transcriptase using ABST as substrate at 100 ug/ml after 1 hr by ELISA

- compound: "CC(C)(C)c1cc(N2C(=O)CSC2c2c(F)cccc2Cl)no1 (configuration not stated)"
  inhibition / %: 51.1
- compound: "Cc1cc(N2C(=O)CSC2c2c(Br)cncc2Br)nc(C)c1Br (configuration not stated)"
  inhibition / %: 62
- compound: "Cc1cc(N2C(=O)CSC2c2c(Cl)cccc2Cl)nc(C)c1Br (configuration not stated)"
  inhibition / %: 60.7
- compound: "CC(C)(C)c1cc(N2C(=O)CSC2c2c(F)cccc2F)no1 (configuration not stated)"
  inhibition / %: 71.5
- compound: "CSc1nc(Cl)cc(N2C(=O)CSC2c2c(F)cccc2Cl)n1 (configuration not stated)"
  inhibition / %: 76.5
- compound: "Cc1cccc(N2C(=O)CSC2c2c(Br)cncc2Br)n1 (configuration not stated)"
  inhibition / %: 77.6
- compound: "CC(C)(C)c1cc(N2C(=O)CSC2c2c(Cl)cccc2Cl)no1 (configuration not stated)"
  inhibition / %: 50.4
